The origin of these recorded values is patent US20240270826A1.

- test target: T1, SARS-CoV-2 S on CHO-S cells (SARS-CoV-2, UniProt P0DTC2 14-1273)
- T1 construct: whole, on cells
- protocol description: flow cytometry, CHO-S cells
quantity measured: Bmax
// keep it numeric: no unit symbol after the value

binder="NRCoV2-04 VHH-Fc (Fc fusion, bivalent VHH-Fc) AVQLVDSGGGLVQPGGSLRLSCAASGSPFSNVVMAWYRQAPGKQRERVAFISGGGIADYIMSVKGRFTISRDNAKNTVYLQMNSLKPEDTAVYYCWSSYESTWGQGTQVTVSS" quantity_measured=Bmax measured_result=15500
binder="NRCoV2-11a VHH-Fc (Fc fusion, bivalent VHH-Fc) EVQLQQSGGGLVQPGGSLRLSCAASGFTLDSYNIAWFRQAPGKEREWISYISRYYESTYYSDSVKGRFTTSRDGDKKTVSLQMNSLKSEDTAVYYCAARSRDFSSPISATDKYGSWGQGTQVTVSS" quantity_measured=Bmax measured_result=12000
binder="NRCoV2-SR13 VHH-Fc (Fc fusion, bivalent VHH-Fc) EVQLVESGGGLVTTGGSLRLSCATSGSRFGSKHMAWYRQAPGKQRDLVAAISSGGSTHYGSSVKGRFTISRDNAKSTVYLQMNSLNPEDTAVFYCNMGGWDYRSNTYIPGSRSDYWGQGTQVTVSS" quantity_measured=Bmax measured_result=17800

stdin: Give the reported value of Bmax for this record: NRCoV2-MRed25 VHH-Fc (Fc fusion, bivalent VHH-Fc) EVQLVESGGGLVQAGGSLRLSCAASGHTFSRYGMGWFRQAPGKEREFVAAISWRGDSTYYRDSVNGRFTISRDNAKNTVYLGMNSLKPEDTAVYYCAAEMWGTATIVASRYTYWGQGTQVTVSS
stdout: 4420

stdin: Give the reported value of Bmax for this record: NRCoV2-12 VHH-Fc (Fc fusion) EVQLQQSGGGLVQAGGSLRLSCAASGRTFRNYVMGWFRQAPQAPGKDHEFVAAISWGGTEIYYADSVKGRFTISRDNAKNTVYLQMNSLKPEDTAVYYCAADRGLSYYYTRTTEYNYWGQGTQVTVSS
stdout: 21800

stdin: Give the reported value of Bmax for this record: NRCoV2-03 VHH-Fc (Fc fusion, bivalent VHH-Fc) EVQLVSSGGGLVQAGGSLRLSCTASGITFSYYAMGWYRQAPGQPRELVASMSNMDSTIYADSVKGRFTISRDNAKTTIYLQMNNLKPEDTAVYFCNIYGPTYSTRRNEYWGQGTQVTVSS
stdout: 16200

stdin: Give the reported value of Bmax for this record: NRCoV2-1d VHH-Fc (Fc fusion, bivalent VHH-Fc) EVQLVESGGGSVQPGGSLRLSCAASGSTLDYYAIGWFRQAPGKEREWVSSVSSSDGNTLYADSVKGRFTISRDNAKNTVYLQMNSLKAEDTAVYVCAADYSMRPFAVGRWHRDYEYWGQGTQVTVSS
stdout: 13800

stdin: Give the reported value of Bmax for this record: NRCoV2-MRed05 VHH-Fc (Fc fusion) EVQLVESGGGLVQPGGSLRLSCAASGFTLDYYAIGWFRQAPGKEREGVSCISSSDGSTLYADSVKGRFTISRDNAKNTVYLQMNSLKPEDTAVYYCATGPQAYYSGSYYFQCPQAGMDYWGKGTQVTVSS
stdout: 17300

stdin: Give the reported value of Bmax for this record: NRCoV2-1a VHH-Fc (Fc fusion, bivalent VHH-Fc) EVKLVQSGGGSVQPGGSLRLSCAASGSTLDYYAIGWFRQAPGKEREWVSCVSSSDGSTLYADSVKGRFTISRDNAKNTVYLQMNSLKPEDTAVYVCAADYSMRPLWVSRWHRDYEYWGQGTQVTVSS
stdout: 17200

stdin: Give the reported value of Bmax for this record: NRCoV2-S2F3 VHH-Fc (Fc fusion, bivalent VHH-Fc) EVQLVQSGGGLVQAGGSLRLSCATSVRILSVPAMGWYRQAPGKEREMVAVITSGGSTNYADSVKGRFTISRDNAKNTVYLQMNSLKLEDTAVYQCNLRDILSQPFWGQGTQVTVSS
stdout: 6950

stdin: Give the reported value of Bmax for this record: NRCoV2-10 VHH-Fc (Fc fusion, bivalent VHH-Fc) QLQLQESGGGLVQPGGSLTLSCAASGNTFSRSNMHWYRQAPGAQREWVAAISSRGISTYAYSAKGRFTISRDNAKNTVSLQMNSLKPEDTAVYYCYAADDLGDYWGQGTQVTVSS
stdout: 28000

stdin: Give the reported value of Bmax for this record: NRCoV2-20 VHH-Fc (Fc fusion, bivalent VHH-Fc) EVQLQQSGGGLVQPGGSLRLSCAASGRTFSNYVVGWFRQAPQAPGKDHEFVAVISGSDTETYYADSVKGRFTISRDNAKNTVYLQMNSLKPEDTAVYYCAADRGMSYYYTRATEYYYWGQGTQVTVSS
stdout: 12100

stdin: Give the reported value of Bmax for this record: NRCoV2-MRed19 VHH-Fc (Fc fusion, bivalent VHH-Fc) EVQLVESGGGLVQPGGSLRLSCAASTIIFKGQTMGWFRQAPGNERELVATMTTSGSANYADSVKGRFTISRDNEKTVTLQMNSLKPEDTALYYCYMHSVYYGIDYWGKGTQVTVSS
stdout: 5480
